Assay target: HIV Env of isolate Ce1172_H1 (clade C) (HIV)
Run description: cell-based or functional assay
Measurement name: IC50 (µg/ml) with constrains
Don't forget the unit after the value.

Notebook: ePGDM9 (antibody, V domains shown) VH: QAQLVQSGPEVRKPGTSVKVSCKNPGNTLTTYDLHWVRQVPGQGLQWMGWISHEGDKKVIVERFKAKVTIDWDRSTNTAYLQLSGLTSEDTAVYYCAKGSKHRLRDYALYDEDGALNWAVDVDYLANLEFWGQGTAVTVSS VL: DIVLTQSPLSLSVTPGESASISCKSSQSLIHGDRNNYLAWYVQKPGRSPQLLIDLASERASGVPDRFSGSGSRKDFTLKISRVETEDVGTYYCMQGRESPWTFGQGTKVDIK , IC50 (µg/ml) with constrains read as 0.027 µg/mL
